Measured IC50 by item
target: EGFR (Homo sapiens); test: Inhibition of a panel of kinases, in vitro HotSpot kinase assay: EGFR; assay type: biochemical; conditions: D-compounds panel data; 1 μM ATP

>>> assay_value("C[C@@H]1[C@H](N2CCN(C)C2=O)CCCN1c1cnc(C(N)=O)c(Nc2cnn(C)c2)n1 [Example D-93]")
"1000 to 10000 nM"
>>> assay_value("C[C@@H]1[C@H](NC(=O)c2cc3c(n2C)CC(C)(C)C3)CCCN1c1cnc(C(N)=O)c(Nc2cnn(C)c2)n1 [Example D-19]")
"100 to 1000 nM"
>>> assay_value("C[C@@H]1[C@H](NC(=O)c2ccc(C(C)(C)N)cc2)CCCN1c1cnc(C(N)=O)c(Nc2cnn(C)c2)n1 [Example D-51]")
"100 to 1000 nM"
>>> assay_value("CN1CCN(c2ccc(Nc3cc(N4CCC[C@@H](n5ccc6cc(C7CC7)ccc6c5=O)C4)cnc3C(N)=O)cc2)CC1 [Example D-178]")
"> 10000 nM"
>>> assay_value("Cc1cc(Nc2nc(N3C[C@@H](NC(=O)c4ccc(C5CC5)cc4F)CC[C@@H]3C)cnc2C(N)=O)sn1 [Example D-78]")
"100 to 1000 nM"
>>> assay_value("C[C@@H]1[C@H](NC(=O)c2ccc(C3CC3)cc2)CCCN1c1cnc(C(N)=O)c(Nc2ccc(N3CCN(CC(F)(F)F)CC3)cc2)n1 [Example D-97]")
"> 10000 nM"

IC50 reading for Cc1cc(Nc2nc(N3C[C@@H](NC(=O)N(C)C)CC[C@@H]3C)cnc2C(N)=O)sn1 [Example D-76] : 1000 to 10000 nM

IC50 reading for Cc1ccc(-c2cnc([C@H]3CCCN(c4cnc(C(N)=O)c(Nc5cc(C)ns5)n4)C3)[nH]2)cc1 [Example D-136] : 100 to 1000 nM

IC50 reading for Cn1cc(Nc2nc(N3CCC[C@@H](NC(=O)c4ccc(C5CC5)cc4)C3)nnc2C(N)=O)cn1 [Example D-195] : > 10000 nM

---

target: EGFR (Homo sapiens, UniProt P00533); test: Inhibition of a panel of kinases, in vitro HotSpot kinase assay: EGFR; assay type: biochemical; details: D-compounds panel data; 1 μM ATP
Sequence (P00533 25-1210): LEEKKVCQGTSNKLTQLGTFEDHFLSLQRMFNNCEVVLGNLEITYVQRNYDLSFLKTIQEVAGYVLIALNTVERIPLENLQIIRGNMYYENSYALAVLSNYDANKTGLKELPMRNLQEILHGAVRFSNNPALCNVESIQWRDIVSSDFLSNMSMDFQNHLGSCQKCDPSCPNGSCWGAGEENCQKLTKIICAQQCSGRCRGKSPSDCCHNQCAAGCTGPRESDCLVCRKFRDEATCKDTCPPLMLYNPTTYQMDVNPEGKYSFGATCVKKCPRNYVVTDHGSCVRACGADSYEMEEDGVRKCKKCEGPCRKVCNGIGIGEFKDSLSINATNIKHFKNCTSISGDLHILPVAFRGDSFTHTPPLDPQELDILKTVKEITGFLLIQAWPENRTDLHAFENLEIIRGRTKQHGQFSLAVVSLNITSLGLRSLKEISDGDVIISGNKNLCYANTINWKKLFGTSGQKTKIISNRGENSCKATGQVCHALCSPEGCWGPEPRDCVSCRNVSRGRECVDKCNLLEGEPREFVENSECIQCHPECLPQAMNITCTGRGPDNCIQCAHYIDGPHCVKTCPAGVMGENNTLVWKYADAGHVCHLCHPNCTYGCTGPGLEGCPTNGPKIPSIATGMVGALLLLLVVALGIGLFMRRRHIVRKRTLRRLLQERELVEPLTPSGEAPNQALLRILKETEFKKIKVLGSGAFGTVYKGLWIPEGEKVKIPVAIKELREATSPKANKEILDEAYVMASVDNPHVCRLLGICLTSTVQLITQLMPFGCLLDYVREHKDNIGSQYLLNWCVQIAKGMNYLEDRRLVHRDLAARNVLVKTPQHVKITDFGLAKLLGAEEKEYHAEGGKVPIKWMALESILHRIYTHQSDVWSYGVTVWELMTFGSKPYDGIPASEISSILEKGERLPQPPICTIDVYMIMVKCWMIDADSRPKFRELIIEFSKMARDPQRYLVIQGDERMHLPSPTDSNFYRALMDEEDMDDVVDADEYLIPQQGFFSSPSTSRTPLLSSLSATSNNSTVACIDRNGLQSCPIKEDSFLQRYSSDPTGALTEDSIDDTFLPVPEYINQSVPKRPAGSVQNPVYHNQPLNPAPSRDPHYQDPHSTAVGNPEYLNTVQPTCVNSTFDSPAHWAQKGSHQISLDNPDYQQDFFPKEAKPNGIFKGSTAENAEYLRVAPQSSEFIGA
pIC50: −log10 of the molar value.
Measured pIC50 by item

Some solved cases for reference:
>>> assay_value("Cn1cc(Nc2nc(N3CCC[C@@H]4[C@H]3CCCN4C(=O)c3ccc(C4CC4)cc3)cnc2C(N)=O)cn1 [Example D-46]")
"6.00 to 7.00"
>>> assay_value("C[C@@H]1[C@H](NC(=O)c2ccc(C3CC3)cc2)CCCN1c1cnc(C(N)=O)c(Nc2ccc3nccn3c2)n1 [Example D-83]")
"< 5.00"
>>> assay_value("Cc1nn(C)cc1Nc1nc(N2CCC[C@@H](NC(=O)c3ccc(C4CC4)cc3)[C@H]2C)cnc1C(N)=O [Example D-272]")
"5.00 to 6.00"
>>> assay_value("C[C@@H]1[C@H](NC(=O)c2cc(C(C)(C)C)on2)CCCN1c1cnc(C(N)=O)c(Nc2cnn(C)c2)n1 [Example D-247]")
"5.00 to 6.00"
>>> assay_value("C[C@@H]1[C@H](NC(=O)c2ccc(N(C)C)cc2)CCCN1c1cnc(C(N)=O)c(Nc2cnn(C)c2)n1 [Example D-24]")
"5.00 to 6.00"
>>> assay_value("C[C@@H]1[C@H](NC(=O)c2ccc3cnn(C)c3c2)CCCN1c1cnc(C(N)=O)c(Nc2cnn(C)c2)n1 [Example D-259]")
"5.00 to 6.00"

Could you now look at the following molecule, please?
pIC50 reading for Cc1cc(Nc2nc(N3CCC[C@@H](c4ncc(-c5ccc(C6CC6)cc5)[nH]4)[C@H]3C)cnc2C(N)=O)sn1 [Example D-186] : 5.00 to 6.00
